Recorded measurements of cytotoxicity at 100 µM, one per entry
experiment: Cytotoxicity against human PC3 cells at 100 uM by WST1 assay; type: cell-based, PC-3; conditions: read-out: INH
readout.kind: cytotoxicity at 100 µM (%)

> print(dat)
                                   compound            readout.kind  endpoint.result
1  O=C(Nc1ccc(Cl)nc1)C1CCCN(C(=O)c2cc(C(F)(F)F)cc(C(F)(F)F)c2)C1 (stereo not given)  cytotoxicity at 100 µM               25
2  O=C(Nc1ccc(Cl)cc1)C1CCCN(C(=O)c2cc(C(F)(F)F)cc(C(F)(F)F)c2)C1 (stereo not given)  cytotoxicity at 100 µM               14
3  O=C(Nc1cccc([N+](=O)[O-])c1)C1CCCN(C(=O)c2cc(C(F)(F)F)cc(C(F)(F)F)c2)C1 (stereo not given)  cytotoxicity at 100 µM                9
4  CS(=O)(=O)Nc1cccc(C(=O)N2CCCC(C(=O)Nc3ccc(Cl)cc3)C2)c1 (stereo not given)  cytotoxicity at 100 µM                3
5  O=C(Nc1cccc(CN2CCCC2)c1)C1CCCN(C(=O)c2cc(C(F)(F)F)cc(C(F)(F)F)c2)C1 (stereo not given)  cytotoxicity at 100 µM               51

---

test: Cytotoxicity against human PC3 cells at 100 uM by WST1 assay; assay type: cell-based, PC-3; conditions: read-out: INH
# if value of cytotoxicity at 100 µM reaches 4%, tag yes (1); if it stays below, tag no (0)

> print(dat)
                                   compound    group
1  Cc1nc(-c2cccc(C(=O)N3CCCC(C(=O)Nc4ccc(Cl)cc4)C3)c2)cs1 (configuration not stated)   no (0)
2  O=C(Nc1cccc(OCc2ccccn2)c1)C1CCCN(C(=O)c2cc(C(F)(F)F)cc(C(F)(F)F)c2)C1 (configuration not stated)  yes (1)
3  O=C(Nc1cccc(Oc2ccccc2)c1)C1CCCN(C(=O)c2cc(C(F)(F)F)cc(C(F)(F)F)c2)C1 (configuration not stated)   no (0)
4  O=C(Nc1ccc(Cl)cc1)C1CCCN(C(=O)c2cccc(-c3nccs3)c2)C1 (configuration not stated)  yes (1)
5  O=C(Nc1cccc(OCCc2ccccn2)c1)C1CCCN(C(=O)c2cc(C(F)(F)F)cc(C(F)(F)F)c2)C1 (configuration not stated)  yes (1)
6  O=C(Nc1ccc(Cl)cc1)C1CCCN(C(=O)c2ccc(-c3ccco3)cc2)C1 (configuration not stated)  yes (1)

---

assay: Cytotoxicity against human PC3 cells at 100 uM by WST1 assay; type: cell-based, PC-3; details: read-out: INH
compounds and their reported cytotoxicity at 100 µM
readout.kind: cytotoxicity at 100 µM

> print(dat)
                                   compound            readout.kind  endpoint.result
1  CS(=O)(=O)c1cccc(C(=O)N2CCCC(C(=O)Nc3ccc(Cl)cc3)C2)c1 (stereo not given)  cytotoxicity at 100 µM               2%
2  C=Cc1cccc(NC(=O)C2CCCN(C(=O)c3cc(C(F)(F)F)cc(C(F)(F)F)c3)C2)c1 (stereo not given)  cytotoxicity at 100 µM               1%
3  CC(=O)Nc1cccc(C(=O)N2CCCC(C(=O)Nc3ccc(Cl)cc3)C2)c1 (stereo not given)  cytotoxicity at 100 µM               4%
4  O=C(Nc1cccc(-c2cnco2)c1)C1CCCN(C(=O)c2cc(C(F)(F)F)cc(C(F)(F)F)c2)C1 (stereo not given)  cytotoxicity at 100 µM               9%
5  Cc1nc(-c2cccc(NC(=O)C3CCCN(C(=O)c4cc(C(F)(F)F)cc(C(F)(F)F)c4)C3)c2)cs1 (stereo not given)  cytotoxicity at 100 µM               1%

---

test: Kinetic solubility of the compound; type: physicochemical; conditions: read-out: Kinetic_solubility
Below is a list of entries, each paired with its recorded solubility kinetic value.
readout.kind: solubility kinetic

> print(dat)
                                   molecule  endpoint.result
1  O=C(Nc1ccc(Cl)cc1)C1CCCN(C(=O)c2cc(C(F)(F)F)cc(C(F)(F)F)c2)C1 (stereo unspecified)        4.5 µg/mL
2  O=C(Nc1ccc(Cl)cc1)C1CCCN(C(=O)c2cccc(-c3cccs3)c2)C1 (stereo unspecified)       1.36 µg/mL
3  O=C(Nc1cccc(Oc2ccccc2)c1)C1CCCN(C(=O)c2cc(C(F)(F)F)cc(C(F)(F)F)c2)C1 (stereo unspecified)       3.22 µg/mL
4  O=C(Nc1ccc(Cl)cc1)C1CCCN(C(=O)c2cccc(-c3ccco3)c2)C1 (stereo unspecified)       3.09 µg/mL
5  O=C(Nc1cccc(Cc2ccccc2)c1)C1CCCN(C(=O)c2cc(C(F)(F)F)cc(C(F)(F)F)c2)C1 (stereo unspecified)       1.89 µg/mL
6  O=C(CCNC(=O)c1cc(C(F)(F)F)cc(C(F)(F)F)c1)Nc1ccc(Cl)cc1       2.21 µg/mL

---

test system: PC-3; experiment: Antimetastatic activity against human PC3 cells at 10 uM after 24 hrs by scratch wound assay; format: functional; details: PC-3, 24 h
readout.kind: inhibition at 10 µM (%)

> print(dat)
                                   compound  unit.abbrev  reported.relation  endpoint.result
1  O=C(Nc1cccc(S(=O)(=O)N2CCCC2)c1)C1CCCN(C(=O)c2cc(C(F)(F)F)cc(C(F)(F)F)c2)C1 (centres undefined)            %                  <               30
2  O=C(CCNC(=O)c1cc(C(F)(F)F)cc(C(F)(F)F)c1)Nc1ccc(Cl)cc1            %                  <               10
3  O=C(Nc1ccc(Cl)cc1)C1CCCN(C(=O)c2cccc(-c3cccs3)c2)C1 (centres undefined)            %                  =               70
4  O=C(Nc1ccc(Cl)cc1)C1CCCN(C(=O)c2cc(C(F)(F)F)cc(C(F)(F)F)c2)C1 (centres undefined)            %                  =               22
5  O=C(Nc1cccc(Cc2ccccc2)c1)C1CCCN(C(=O)c2cc(C(F)(F)F)cc(C(F)(F)F)c2)C1 (centres undefined)            %                  <               30
6  O=C(Nc1cccc(OCCc2ccccn2)c1)C1CCCN(C(=O)c2cc(C(F)(F)F)cc(C(F)(F)F)c2)C1 (centres undefined)            %                  <               30
7  O=C(Nc1ccc(Cl)cc1)C1CCCN(C(=O)c2cccc(-c3ccco3)c2)C1 (centres undefined)            %                  =               70
8  O=C(Nc1cccc(Oc2ccccc2)c1)C1CCCN(C(=O)c2cc(C(F)(F)F)cc(C(F)(F)F)c2)C1 (centres undefined)            %                  <               30
9  Cc1nc(-c2cccc(NC(=O)C3CCCN(C(=O)c4cc(C(F)(F)F)cc(C(F)(F)F)c4)C3)c2)cs1 (centres undefined)            %                  =               42
